experiment: Cmax in male ICR mouse at 10 mg/kg, po; format: ADME, organism-based; design: dose 10 mg/kg, route oral; conditions: in vivo
REPORTED_PROPERTY: Cmax (ng/mL)

| STRUCTURE | REPORTED_PROPERTY | RECORDED_MEASUREMENT |
| --- | --- | --- |
| CN1CCN(C(=O)c2cnc(O)nc2Oc2cc(Cl)ccc2Cl)c2ccccc21 | Cmax | 236 |

* * *

test: Half life in male ICR mouse at 5 mg/kg, iv; assay type: ADME, organism-based; design: dose 5 mg/kg, route intravenous; conditions: in vivo

| STRUCTURE | UNITS_OF_MEASURE | half-life |
| --- | --- | --- |
| CN1CCN(C(=O)c2cnc(O)nc2Oc2cc(Cl)ccc2Cl)c2ccccc21 | h | 1.45 |
